assay: Cytotoxicity against hamster BHK21 cells assessed as reduction in cell viability after 48 to 96 hrs by MTT assay; assay type: cell-based, Mesocricetus auratus, BHK-21; conditions: bhk-21
Measured Parameter: CC50

- CCOC(=O)N1CCN(/N=N/c2ccccc2)CC1: > 100 µM
- O=[N+]([O-])c1cccc(/N=N/Nc2cccc([N+](=O)[O-])c2)c1: > 100 µM
- c1ccc(/N=N/N2CCCCC2)cc1: > 100 µM

---

Overview of recorded CC50 for various compounds
test system: Vero; experiment: Cytotoxicity against african green monkey Vero 76 cells by crystal violet staining; assay type: cell-based; details: chlorocebus sabaeus, vero
Measured Parameter: CC50 (µM)

* COc1ccc(/N=N/N2CCCC2)cc1 | 90
* Fc1ccc(/N=N/c2ccc(NC[C@@H]3CCCN4CCCC[C@H]34)c3c2CCCC3)c(F)c1 | 15
* O=[N+]([O-])c1ccc(/N=N/N2CCCC2)cc1 | 90
* Cc1ccc(/N=N/N(CCCN(C)C)c2ccccc2)cc1 | 100
* O=C1CCN(/N=N/c2ccccc2)CC1 | 60
* CN(C)CCCN(/N=N/c1cccc([N+](=O)[O-])c1)c1ccccc1 | 40
* O=[N+]([O-])c1cccc(/N=N/N2CCCC2)c1 | 80
* O=c1cccc2n1CC1CC2CN(/N=N/c2cccc([N+](=O)[O-])c2)C1 (centres undefined) | 90

---

system: Vero; experiment: Cytotoxicity against african green monkey Vero 76 cells by crystal violet staining; format: cell-based; conditions: chlorocebus sabaeus, vero
Measured Parameter: CC50 (µM)

- CN(C)CCCN(/N=N/c1cc(F)ccc1F)c1cccc(C(F)(F)F)c1: 30
- Clc1ccc(/N=N/N2CCCC2)cc1Cl: 58

---

test system: Vero; assay: Cytotoxicity against african green monkey Vero 76 cells by crystal violet staining; assay type: cell-based; settings: chlorocebus sabaeus, vero
Overview of recorded CC50 for various compounds
Measured Parameter: CC50

- Fc1ccc(F)c(/N=N/N2CCCC2)c1: > 100 µM
- CN(Cc1ccccc1)/N=N/c1ccccc1: ≥ 100 µM
- CN1CCN(/N=N/c2cc(F)ccc2F)CC1: ≥ 100 µM
- CN(/N=N/c1ccccc1)c1ccccc1: 50 µM
- FC(F)(F)c1cccc(N(C[C@@H]2CCCN3CCCC[C@H]23)/N=N/c2ccccc2)c1: 75 µM
- CN(C)CCCN(/N=N/c1cc(F)ccc1F)c1ccccc1: 7 µM
- Fc1ccc(F)c(/N=N/Nc2cccc(C(F)(F)F)c2)c1: 80 µM
- O=[N+]([O-])c1cccc(/N=N/N2CCCCC2)c1: 83 µM
- O=[N+]([O-])c1cccc(/N=N/Nc2cccc([N+](=O)[O-])c2)c1: > 100 µM
- COc1c(C)c2c(c(O)c1C/C=C(\C)CCC(=O)O)C(=O)OC2: ≥ 13 µM
- O=c1cnn([C@@H]2O[C@H](CO)[C@@H](O)[C@H]2O)c(=O)[nH]1: 20 µM
- CN(C)CCCNc1ccc(/N=N/c2cc(F)ccc2F)cc1: 30 µM

---

tested on: MT4; assay: Cytotoxicity against human MT4 cells after 96 hrs by MTT assay; format: cell-based; settings: mt4, 96 h
Measured Parameter: CC50 (µM)

• CN1CCN(/N=N/c2ccccc2)CC1 = 65
• Fc1ccc(/N=N/c2ccc(NC[C@@H]3CCCN4CCCC[C@H]34)c3c2CCCC3)c(F)c1 = 51
• Cc1ccc(/N=N/c2ccc(NCCCN(C)C)cc2)cc1 = 17
• CN(C)CCCNc1ccc(/N=N/c2c(F)cccc2F)cc1 = 35
• CN(C)CCCNc1ccc(/N=N/c2ccc([N+](=O)[O-])cc2)cc1 = 19
• O=[N+]([O-])c1cccc(/N=N/Nc2ccccc2)c1 = 40
• c1ccc(/N=N/N2CCN(c3ncccn3)CC2)cc1 = 90
• Cc1c(/N=N/c2cccc(C(F)(F)F)c2)ccc(NC[C@@H]2CCCN3CCCC[C@H]23)c1C = 77
